# Assayed System: Tyrosine-protein kinase JAK1 (Homo sapiens, UniProt P23458)
# Sequence (P23458 whole entry): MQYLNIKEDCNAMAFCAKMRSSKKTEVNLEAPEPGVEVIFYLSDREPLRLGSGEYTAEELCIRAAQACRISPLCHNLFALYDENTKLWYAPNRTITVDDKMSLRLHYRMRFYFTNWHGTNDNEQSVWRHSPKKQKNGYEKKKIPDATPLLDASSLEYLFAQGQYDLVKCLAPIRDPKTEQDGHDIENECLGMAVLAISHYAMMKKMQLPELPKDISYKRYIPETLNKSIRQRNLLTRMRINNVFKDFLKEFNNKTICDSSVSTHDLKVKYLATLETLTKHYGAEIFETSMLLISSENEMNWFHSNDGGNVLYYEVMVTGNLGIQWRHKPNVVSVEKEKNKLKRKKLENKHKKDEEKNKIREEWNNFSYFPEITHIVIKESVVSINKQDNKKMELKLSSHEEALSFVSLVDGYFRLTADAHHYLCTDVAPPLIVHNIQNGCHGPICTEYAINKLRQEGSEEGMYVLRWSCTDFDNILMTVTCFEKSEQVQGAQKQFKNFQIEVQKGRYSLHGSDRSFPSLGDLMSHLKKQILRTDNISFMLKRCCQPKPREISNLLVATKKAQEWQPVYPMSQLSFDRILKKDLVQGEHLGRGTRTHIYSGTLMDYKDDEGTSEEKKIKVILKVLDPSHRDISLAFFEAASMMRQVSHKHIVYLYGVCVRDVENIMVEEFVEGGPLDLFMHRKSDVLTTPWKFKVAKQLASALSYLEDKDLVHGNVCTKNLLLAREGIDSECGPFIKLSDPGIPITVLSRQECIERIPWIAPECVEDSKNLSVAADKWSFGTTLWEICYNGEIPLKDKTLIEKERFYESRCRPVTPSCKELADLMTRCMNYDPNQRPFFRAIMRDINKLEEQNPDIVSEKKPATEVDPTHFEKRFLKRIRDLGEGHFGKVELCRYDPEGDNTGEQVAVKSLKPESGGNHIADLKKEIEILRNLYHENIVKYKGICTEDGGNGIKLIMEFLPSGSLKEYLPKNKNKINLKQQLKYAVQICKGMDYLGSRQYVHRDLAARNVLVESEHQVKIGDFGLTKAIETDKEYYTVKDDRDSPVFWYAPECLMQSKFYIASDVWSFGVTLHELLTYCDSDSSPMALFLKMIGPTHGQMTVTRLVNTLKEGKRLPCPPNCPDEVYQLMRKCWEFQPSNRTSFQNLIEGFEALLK
# Measurement Protocol: Inhibition of JAK1 (unknown origin) after 1 hr by FRET-based Z'-Lyte assay
Measured Quantity: pIC50
Worth noting: pIC50 values are minus log10 of concentrations stated in mol/L.

Some solved entries appear below for comparison.
O=C(Nc1ccc2[nH]ncc2c1)c1ccccc1Cn1cnnn1 | 5.01
Nc1n[nH]c2ccc(NC(=O)c3cccc(Cl)c3)cc12 | 6.03
Nc1n[nH]c2ccc(NC(=O)c3cccc(Cl)c3Cl)cc12 | 5.82

(Q) Report the value of pIC50 obtained on Tyrosine-protein kinase JAK1 (Homo sapiens, UniProt P23458) for `CCNc1ccccc1C(=O)Nc1ccc2[nH]nc(N)c2c1` .
(A) 4.66

(Q) Report the value of pIC50 obtained on Tyrosine-protein kinase JAK1 (Homo sapiens, UniProt P23458) for `O=C(Nc1ccc2[nH]ncc2c1)c1cccc(-n2cnnn2)c1` .
(A) 6.12

(Q) Report the value of pIC50 obtained on Tyrosine-protein kinase JAK1 (Homo sapiens, UniProt P23458) for `O=C(Nc1ccc2[nH]ncc2c1)c1c(Cl)cccc1-n1cnnn1` .
(A) 4.94

(Q) Report the value of pIC50 obtained on Tyrosine-protein kinase JAK1 (Homo sapiens, UniProt P23458) for `O=C(Nc1ccc2[nH]ncc2c1)c1ccccc1Cl` .
(A) 5.07

----------
# Species on record: Homo sapiens
# Measurement Protocol: Selectivity ratio of IC50 for JAK1 (unknown origin) to IC50 for JAK2 (unknown origin)
Measured Ratio IC50 values are reported for all entries that follow.
I only need the number, thanks.

(Q) Write down Ratio IC50 measured for item `Nc1n[nH]c2ccc(NC(=O)c3ccccc3Cl)cc12`
(A) 18

(Q) Write down Ratio IC50 measured for item `c1ccc(-n2cnnn2)c(-c2cc(-c3ccc4[nH]ncc4c3)on2)c1`
(A) 1.65

(Q) Write down Ratio IC50 measured for item `Nc1n[nH]c2ccc(C(=O)Nc3cc(Cl)ccc3Cl)cc12`
(A) 11

(Q) Write down Ratio IC50 measured for item `Nc1n[nH]c2ccc(NC(=O)c3cccc(Cl)c3Cl)cc12`
(A) 3.67

(Q) Write down Ratio IC50 measured for item `Clc1cccc(-n2cnnn2)c1-c1nc(-c2ccc3[nH]ncc3c2)cs1`
(A) 12.8

(Q) Write down Ratio IC50 measured for item `Nc1n[nH]c2ccc(C(=O)Nc3c(Cl)cccc3Cl)cc12`
(A) 16

(Q) Write down Ratio IC50 measured for item `Nc1n[nH]c2ccc(NC(=O)c3ccccc3-n3cnnn3)cc12`
(A) 5.3

(Q) Write down Ratio IC50 measured for item `c1ccc(-n2cnnn2)c(-c2cn(-c3ccc4[nH]ncc4c3)nn2)c1`
(A) 0.9

(Q) Write down Ratio IC50 measured for item `Nc1n[nH]c2ccc(NC(=O)c3cc(Cl)ccc3Cl)cc12`
(A) 6.57

(Q) Write down Ratio IC50 measured for item `O=C(Nc1ccc2[nH]ncc2c1)c1ccccc1Cn1cnnn1`
(A) 2.7

(Q) Write down Ratio IC50 measured for item `Nc1n[nH]c2ccc(NC(=O)c3cccc(Cl)c3)cc12`
(A) 1.63

(Q) Write down Ratio IC50 measured for item `O=C(Nc1ccc2[nH]ncc2c1)c1cccc(-n2cnnn2)c1`
(A) 1

(Q) Write down Ratio IC50 measured for item `O=C(Nc1ccc2[nH]ncc2c1)c1ccccc1Cl`
(A) 18.8

----------
Measured IC50 values are reported for all entries that follow.
# Assayed System: Tyrosine-protein kinase JAK2 (Homo sapiens, UniProt O60674)
# Sequence (O60674 whole entry): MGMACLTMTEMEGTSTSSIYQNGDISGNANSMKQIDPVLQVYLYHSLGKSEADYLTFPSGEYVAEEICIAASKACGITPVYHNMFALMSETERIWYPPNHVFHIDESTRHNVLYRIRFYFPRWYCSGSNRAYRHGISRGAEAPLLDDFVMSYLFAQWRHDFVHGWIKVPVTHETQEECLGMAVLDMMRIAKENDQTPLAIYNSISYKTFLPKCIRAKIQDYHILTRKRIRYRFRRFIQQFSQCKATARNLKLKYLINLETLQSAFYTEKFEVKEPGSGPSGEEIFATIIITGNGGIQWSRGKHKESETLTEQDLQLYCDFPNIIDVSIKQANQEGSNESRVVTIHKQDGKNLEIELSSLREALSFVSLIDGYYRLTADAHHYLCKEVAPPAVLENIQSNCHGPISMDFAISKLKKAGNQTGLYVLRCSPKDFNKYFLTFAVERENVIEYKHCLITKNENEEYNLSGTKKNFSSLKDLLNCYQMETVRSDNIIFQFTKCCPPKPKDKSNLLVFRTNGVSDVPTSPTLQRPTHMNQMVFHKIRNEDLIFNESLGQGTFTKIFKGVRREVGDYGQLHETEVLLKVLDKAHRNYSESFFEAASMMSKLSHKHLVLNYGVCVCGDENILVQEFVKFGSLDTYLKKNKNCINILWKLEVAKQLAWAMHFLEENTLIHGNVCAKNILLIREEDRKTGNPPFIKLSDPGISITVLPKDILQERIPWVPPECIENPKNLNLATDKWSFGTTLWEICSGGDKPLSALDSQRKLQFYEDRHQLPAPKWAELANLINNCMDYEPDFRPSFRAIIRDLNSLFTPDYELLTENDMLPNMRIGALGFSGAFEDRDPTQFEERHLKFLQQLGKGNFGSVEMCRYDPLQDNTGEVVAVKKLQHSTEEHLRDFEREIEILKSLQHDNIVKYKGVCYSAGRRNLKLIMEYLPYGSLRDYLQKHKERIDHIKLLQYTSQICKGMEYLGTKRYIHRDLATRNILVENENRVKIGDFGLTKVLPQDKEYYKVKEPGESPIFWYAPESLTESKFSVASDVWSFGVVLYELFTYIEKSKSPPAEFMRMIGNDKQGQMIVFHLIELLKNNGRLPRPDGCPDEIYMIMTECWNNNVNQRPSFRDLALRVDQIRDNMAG
# Measurement Protocol: Inhibition of JAK2 (unknown origin) after 1 hr FRET-based Z'-Lyte assay
Field: numeric (µM). Do not append units.

(Q) Report the value of IC50 obtained on Tyrosine-protein kinase JAK2 (Homo sapiens, UniProt O60674) for `c1ccc(-n2cnnn2)c(-c2nc(-c3ccc4[nH]ncc4c3)cs2)c1` .
(A) 1.54

(Q) Report the value of IC50 obtained on Tyrosine-protein kinase JAK2 (Homo sapiens, UniProt O60674) for `Clc1cccc(-n2cnnn2)c1-c1nc(-c2ccc3[nH]ncc3c2)cs1` .
(A) 1.68

(Q) Report the value of IC50 obtained on Tyrosine-protein kinase JAK2 (Homo sapiens, UniProt O60674) for `Nc1n[nH]c2ccc(NC(=O)c3cccc(Cl)c3Cl)cc12` .
(A) 0.411

(Q) Report the value of IC50 obtained on Tyrosine-protein kinase JAK2 (Homo sapiens, UniProt O60674) for `O=C(Nc1ccc2[nH]ncc2c1)c1ccccc1Cn1cnnn1` .
(A) 3.54

(Q) Report the value of IC50 obtained on Tyrosine-protein kinase JAK2 (Homo sapiens, UniProt O60674) for `Nc1n[nH]c2ccc(NC(=O)c3ccccc3-n3cnnn3)cc12` .
(A) 6.34
